These entries and their values trace back to patent US10517889B2.

Tested on: human SMAD7 mRNA
assayInfo: Antisense inhibition of human SMAD7 mRNA expression in Hep3B cells by 3-10-3 cEt gapmers, 10,000 nM, electroporation (Example 2)
Format: cell-based
settings: Hep3B cells, electroporation with 10,000 nM antisense oligonucleotide, approximately 24 hours, RTS5062, percent inhibition of SMAD7 mRNA relative to untreated control cells
Strand notation (5' to 3'): a small letter for the sugar, then the base; units joined by * are phosphorothioate-linked, units joined directly phosphodiester-linked; [ ] holds rarer units or linkages, { } end groups; capitals alone tell only the bases. k = constrained ethyl (cEt); [5mC] = 5-methylcytosine; d = 2'-deoxy (DNA)
readoutName: % Inhibition (%)
Supply the numeric figure in %, leaving out any unit text.

Some substances with known % Inhibition results, for comparison:
Incoming: State its % Inhibition for this substance: 799747 (antisense kA*kA*kA*dT*dG*dG*dG*dA*dA*dA*dT*dA*dA*kG*kG*k[5mC]) [compound 799747]
Outgoing: 43

Incoming: Quickly give me recorded % Inhibition for 799768 (k[5mC]*kA*k[5mC]*d[5mC]*dA*dA*d[5mC]*d[5mC]*dT*d[5mC]*dT*dG*dT*kG*kG*kG; antisense) [compound 799768]
Outgoing: 0

Incoming: Indicate the recorded % Inhibition value for this substance: 799590 (k[5mC]*kT*kG*d[5mC]*dA*dG*dT*d[5mC]*dT*dT*d[5mC]*dT*dG*kA*kA*kG; antisense) [compound 799590]
Outgoing: 9

Incoming: Please give measured % Inhibition of the following entry: 799529 (kG*kA*kA*dT*dT*dT*d[5mC]*dT*d[5mC]*dT*dT*dG*d[5mC]*kA*kT*kT; antisense) [compound 799529]
Outgoing: 27

Incoming: Tell me its % Inhibition given 799728 (antisense k[5mC]*kG*kG*dA*dG*dA*dG*dG*dA*dA*dG*d[5mC]*d[5mC]*kT*k[5mC]*kT) [compound 799728] as the entry.
Outgoing: 37

Here is another substance to look at.
Incoming: Give the measured % Inhibition for 799603 (kG*k[5mC]*k[5mC]*d[5mC]*dA*dT*dT*dA*dT*dG*dA*dA*dT*kA*k[5mC]*kA; antisense) [compound 799603]
Outgoing: 52

###

Tested on: human SMAD7 mRNA
assayInfo: Dose-dependent inhibition of human SMAD7 mRNA expression in Hep3B cells (Example 3, Study 1 and 2)
Type: cell-based
settings: 6670.0 nM, electroporation, approximately 16 hours, Study 2
Strand notation (5' to 3'): a small letter for the sugar, then the base; units joined by * are phosphorothioate-linked, units joined directly phosphodiester-linked; [ ] holds rarer units or linkages, { } end groups; capitals alone tell only the bases. k = constrained ethyl (cEt); [5mC] = 5-methylcytosine; d = 2'-deoxy (DNA)
The entries below come with measured % inhibition of SMAD7 mRNA expression values attached.

Incoming: Identify measured % inhibition of SMAD7 mRNA expression corresponding to 790736 (kT*k[5mC]*kA*dA*dA*d[5mC]*dT*dT*dT*dG*dA*dA*dG*k[5mC]*k[5mC]*kT; antisense) [compound 790736]
Outgoing: 68%

Incoming: Identify % inhibition of SMAD7 mRNA expression associated with the substance 799854 (kG*k[5mC]*k[5mC]*dA*dA*dG*dT*dG*dT*d[5mC]*d[5mC]*dA*dT*k[5mC]*kA*kA; antisense) [compound 799854]
Outgoing: 80%

Incoming: Tell us which % inhibition of SMAD7 mRNA expression value is on record for 830053 (kG*kG*kG*dT*dG*dA*dG*dT*dA*dA*d[5mC]*d[5mC]*dA*kG*k[5mC]*kT; antisense) [compound 830053]
Outgoing: 79%

Next:
Incoming: Consider the substance 799312 (antisense k[5mC]*kA*kT*d[5mC]*dT*dT*dT*dA*dA*dG*d[5mC]*dA*d[5mC]*kG*k[5mC]*kT) [compound 799312] and give its recorded % inhibition of SMAD7 mRNA expression.
Outgoing: 49%

Incoming: Respond only with % inhibition of SMAD7 mRNA expression recorded for 830208 (kA*kA*kG*dG*dT*dG*dA*d[5mC]*dT*d[5mC]*dA*dT*d[5mC]*kA*kG*kG; antisense) [compound 830208]
Outgoing: 79%

Incoming: Write down % inhibition of SMAD7 mRNA expression measured for item 798696 (antisense kT*k[5mC]*k[5mC]*d[5mC]*d[5mC]*d[5mC]*dT*dG*d[5mC]*dG*d[5mC]*d[5mC]*d[5mC]*kT*k[5mC]*k[5mC]) [compound 798696]
Outgoing: 58%

Incoming: Return % inhibition of SMAD7 mRNA expression (reported value) for this substance: 829734 (antisense kT*k[5mC]*k[5mC]*dG*d[5mC]*dA*d[5mC]*dA*d[5mC]*d[5mC]*dA*dT*dG*kA*kA*kG) [compound 829734]
Outgoing: 69%

Incoming: Indicate the recorded % inhibition of SMAD7 mRNA expression value for this substance: 800025 (kA*kG*kT*dA*d[5mC]*dA*dA*dG*dG*dA*d[5mC]*dT*dA*kA*kG*kG; antisense) [compound 800025]
Outgoing: 55%

Incoming: Indicate the recorded % inhibition of SMAD7 mRNA expression value for this substance: 830142 (antisense kT*kG*kT*dG*d[5mC]*dA*d[5mC]*d[5mC]*dA*dG*dG*dT*dG*kA*kG*k[5mC]) [compound 830142]
Outgoing: 32%

Incoming: Input 830010 (antisense kG*kT*k[5mC]*dT*d[5mC]*dA*dA*dA*dT*dG*dG*dG*d[5mC]*kT*kT*k[5mC]) [compound 830010] , output reported % inhibition of SMAD7 mRNA expression.
Outgoing: 52%
